Data provenance is the supplement of paper PMC10307832.

- System: NCI-H2087
- test.description: relative viability (nuclei count vs DMSO), 5 days (fraction); higher = more cells survive
- condition.summary: first compound 0.08 µM
// reported relative viability for each item listed
The answer should be written as a number, with no unit following it.

O=c1[nH]c2ccccc2n1C1CCN(CCCC(c2ccc(F)cc2)c2ccc(F)cc2)CC1 [Pimozide] + O=C(CCCCCCC(=O)Nc1ccccc1)NO [Vorinostat] (partner 1 µM) :: 0.802
Cc1cnc(-c2cnc(NCCNc3ccc(C#N)cn3)nc2-c2ccc(Cl)cc2Cl)[nH]1 + C[C@@H](Oc1cc(-c2cnn(C3CCNCC3)c2)cnc1N)c1c(Cl)ccc(F)c1Cl [Crizotinib] (partner 1 µM) :: 0.744
Cc1cnc(-c2cnc(NCCNc3ccc(C#N)cn3)nc2-c2ccc(Cl)cc2Cl)[nH]1 + NC(=O)Nc1cc(-c2cccc(F)c2)sc1C(=O)N[C@H]1CCCNC1 [AZD7762] (partner 0.2 µM) :: 1.3

Dear colleague, I am looking for the recorded relative viability of the following compound: O=c1[nH]c2ccccc2n1C1CCN(CCCC(c2ccc(F)cc2)c2ccc(F)cc2)CC1 [Pimozide] + CC(=O)c1c(C)c2cnc(Nc3ccc(N4CCNCC4)cn3)nc2n(C2CCCC2)c1=O [Palbociclib] (partner 0.5 µM)
0.197

Dear colleague, I am looking for the recorded relative viability of the following compound: O=c1[nH]c2ccccc2n1C1CCN(CCCC(c2ccc(F)cc2)c2ccc(F)cc2)CC1 [Pimozide] + COc1cccc2cc(-c3nc([C@H]4CC[C@H](C(=O)O)CC4)n4ncnc(N)c34)[nH]c12 [OSI-027] (partner 0.5 µM)
0.765

Dear colleague, I am looking for the recorded relative viability of the following compound: Cc1cnc(-c2cnc(NCCNc3ccc(C#N)cn3)nc2-c2ccc(Cl)cc2Cl)[nH]1 + CC1(C)CCC(c2ccc(Cl)cc2)=C(CN2CCN(c3ccc(C(=O)NS(=O)(=O)c4ccc(N[C@H](CCN5CCOCC5)CSc5ccccc5)c(S(=O)(=O)C(F)(F)F)c4)cc3)CC2)C1 [Navitoclax] (partner 0.5 µM)
0.88

Dear colleague, I am looking for the recorded relative viability of the following compound: Cc1cnc(-c2cnc(NCCNc3ccc(C#N)cn3)nc2-c2ccc(Cl)cc2Cl)[nH]1 + COc1cccc2cc(-c3nc([C@H]4CC[C@H](C(=O)O)CC4)n4ncnc(N)c34)[nH]c12 [OSI-027] (partner 0.5 µM)
0.48

Dear colleague, I am looking for the recorded relative viability of the following compound: Cc1cnc(-c2cnc(NCCNc3ccc(C#N)cn3)nc2-c2ccc(Cl)cc2Cl)[nH]1 + Nc1ncn([C@H]2C[C@H](O)[C@@H](CO)O2)c(=O)n1 [Decitabine] (partner 2 µM)
0.282

Dear colleague, I am looking for the recorded relative viability of the following compound: O=c1[nH]c2ccccc2n1C1CCN(CCCC(c2ccc(F)cc2)c2ccc(F)cc2)CC1 [Pimozide] + C[C@]1(O)C[C@@H](c2nc(-c3ccc4ccc(-c5ccccc5)nc4c3)c3c(N)nccn32)C1 [Linsitinib] (partner 1 µM)
0.904
